# MEASUREMENT NOTES: Stability of prodrugs in PBS at 37° C., LC-MS
# Type: physicochemical
# REPORTED CONDITIONS: buffer, pH 7.4

COMPOUND: CCN(Cc1nc2c(N)nc3ccccc3c2n1CC(C)(C)O)C(=O)OC(C(=O)OC)c1ccc(NC(=O)OCc2c(F)c(F)c(N=[N+]=[N-])c(F)c2F)cc1 (stereo not shown) [Compound 10]
half-life at 10 μM: 93.8 days
